# Measured On: human ether-à-go-go-related gene (hERG) potassium channel (human)
# Assay Overview: primary screen, population patch clamp on CHO cells stably expressing hERG; higher = less effect of the substance;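 note: peak tail current of the secondary pulse compared with the same well before compound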
Among all 310,000 compounds or so, about 14,000 (4.5%) showed an effect of 50% or more. Effects have a minus sign here. Only a selection was taken, and strong results are over-represented in it overall.
Some molecules, each annotated with its measured hERG current change (%, negative = inhibition) at 10uM.
Report only the number, with the unit % understood.

O=C(Nc1ccc(Cl)cc1)OC1CN2CCC1CC2 (stereo not shown) = -40.6

Tell me reported hERG current change (%, negative = inhibition) at 10uM for "COc1ccc(/C=C2\SC(=S)N(NS(=O)(=O)c3ccccc3)C2=O)c(OC)c1" , tested with human ether-à-go-go-related gene (hERG) potassium channel (human).
-33.1

Tell me reported hERG current change (%, negative = inhibition) at 10uM for "O=C(COc1ccc(Cl)cc1)N1CCCC1" , tested with human ether-à-go-go-related gene (hERG) potassium channel (human).
-7.47

Tell me reported hERG current change (%, negative = inhibition) at 10uM for COc1cc(C2Nc3ccccc3C(=O)N2c2ccccc2)c(Br)cc1OCC(=O)O (stereo not shown) , tested with human ether-à-go-go-related gene (hERG) potassium channel (human).
0.108

Tell me reported hERG current change (%, negative = inhibition) at 10uM for CCCCc1cc(=O)oc2cc(C)cc(OC(C)C(=O)NCc3cccnc3)c12 (stereo not shown) , tested with human ether-à-go-go-related gene (hERG) potassium channel (human).
-19.7

Tell me reported hERG current change (%, negative = inhibition) at 10uM for CCOc1cc(C2Nc3ccccc3C(=O)N2c2ccccc2)ccc1O (stereo not shown) , tested with human ether-à-go-go-related gene (hERG) potassium channel (human).
4.38

Tell me reported hERG current change (%, negative = inhibition) at 10uM for "O=C(CNS(=O)(=O)c1ccc(Cl)cc1)NNC(=O)c1cccnc1" , tested with human ether-à-go-go-related gene (hERG) potassium channel (human).
20.7

Tell me reported hERG current change (%, negative = inhibition) at 10uM for Cl.O=C(COc1ccc(Cl)cc1)N(c1ccc(Cl)cc1)C1CN2CCC1CC2 (stereo not shown) , tested with human ether-à-go-go-related gene (hERG) potassium channel (human).
-65.1

Tell me reported hERG current change (%, negative = inhibition) at 10uM for "COCC(=O)Nc1cc(=O)n(C)c(=O)n1C" , tested with human ether-à-go-go-related gene (hERG) potassium channel (human).
4.94

Tell me reported hERG current change (%, negative = inhibition) at 10uM for COc1ccc(C2=NN(c3ccccc3)C(c3cn(CCC(=O)O)nc3-c3ccccc3)C2)cc1 (stereo not shown) , tested with human ether-à-go-go-related gene (hERG) potassium channel (human).
1.09

* * *

Some compounds, each annotated with its measured hERG current change (%, negative = inhibition) at 10uM.
# Measured On: human ether-à-go-go-related gene (hERG) potassium channel (human, UniProt Q12809)
# Sequence (Q12809 whole entry, looked up): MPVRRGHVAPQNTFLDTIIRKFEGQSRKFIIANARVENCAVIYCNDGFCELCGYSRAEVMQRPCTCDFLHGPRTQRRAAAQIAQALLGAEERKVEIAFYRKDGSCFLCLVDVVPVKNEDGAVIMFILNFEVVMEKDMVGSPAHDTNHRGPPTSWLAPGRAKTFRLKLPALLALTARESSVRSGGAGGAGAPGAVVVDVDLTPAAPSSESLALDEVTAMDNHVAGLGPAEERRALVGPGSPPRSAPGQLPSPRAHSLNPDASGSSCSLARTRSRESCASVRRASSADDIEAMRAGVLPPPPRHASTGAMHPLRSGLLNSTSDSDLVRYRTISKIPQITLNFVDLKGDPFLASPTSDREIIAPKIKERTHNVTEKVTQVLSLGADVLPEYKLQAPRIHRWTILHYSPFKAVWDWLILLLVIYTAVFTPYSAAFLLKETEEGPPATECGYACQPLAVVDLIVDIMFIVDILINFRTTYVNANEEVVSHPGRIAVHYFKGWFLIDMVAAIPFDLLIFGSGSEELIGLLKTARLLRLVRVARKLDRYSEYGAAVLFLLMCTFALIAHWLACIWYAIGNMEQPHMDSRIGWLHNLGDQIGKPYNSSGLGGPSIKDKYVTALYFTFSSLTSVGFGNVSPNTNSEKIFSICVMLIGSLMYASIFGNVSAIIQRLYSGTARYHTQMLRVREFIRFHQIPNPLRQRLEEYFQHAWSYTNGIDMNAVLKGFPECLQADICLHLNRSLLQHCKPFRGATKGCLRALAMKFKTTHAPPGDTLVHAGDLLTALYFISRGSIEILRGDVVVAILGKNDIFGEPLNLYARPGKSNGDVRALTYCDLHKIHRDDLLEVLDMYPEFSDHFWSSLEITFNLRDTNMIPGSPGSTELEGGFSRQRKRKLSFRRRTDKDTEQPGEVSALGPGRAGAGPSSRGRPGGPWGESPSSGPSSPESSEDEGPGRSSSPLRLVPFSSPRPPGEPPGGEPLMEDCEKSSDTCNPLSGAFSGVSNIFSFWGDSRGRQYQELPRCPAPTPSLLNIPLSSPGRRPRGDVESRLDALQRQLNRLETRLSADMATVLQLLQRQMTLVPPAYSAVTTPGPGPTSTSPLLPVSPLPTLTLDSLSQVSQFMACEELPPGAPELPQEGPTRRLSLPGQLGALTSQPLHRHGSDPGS
# Assay Overview: primary screen, population patch clamp on CHO cells stably expressing hERG; higher = less effect of the substance
Screen size: about 310,000 compounds; about 14,000 (4.5%) showed an effect of 50% or more. The effect is printed as a negative number. Only a selection was taken, and strong results are over-represented in it overall.

CCC(C)(C)n1nnnc1C(C(C)C)N1CCSCC1 (stereo not shown) = -61.6%

Field request: hERG current change (%, negative = inhibition) at 10uM | item: "CCCN(Cc1cc2ccc(C)cc2[nH]c1=O)S(=O)(=O)c1ccccc1"
6.34%

Field request: hERG current change (%, negative = inhibition) at 10uM | item: "CCCc1nnc(SCC(=O)Nc2ccc(OCC)cc2)n1N"
-3.79%

Field request: hERG current change (%, negative = inhibition) at 10uM | item: "O=C(Nc1ccccc1)NC1(C(=O)N2CCN(C(=O)c3ccco3)CC2)CCCCC1"
0.526%

Field request: hERG current change (%, negative = inhibition) at 10uM | item: CCC(C)(C)n1nnnc1C(c1ccc(C)cc1)N1CCSCC1 (stereo not shown)
-55.1%

Field request: hERG current change (%, negative = inhibition) at 10uM | item: CCC(C)(C)n1nnnc1C(c1ccc(C)cc1)N1CCCC1.Cl (stereo not shown)
-11.7%

* * *

# Measured On: human ether-à-go-go-related gene (hERG) potassium channel (human)
# Assay Overview: primary screen, population patch clamp on CHO cells stably expressing hERG; higher = less effect of the substance
The campaign covered roughly 310,000 compounds. About 14,000 (4.5%) showed an effect of 50% or more. Effects have a minus sign here. This excerpt belongs to a sample that is enriched for strong results.
Some molecules, each annotated with its measured hERG current change (%, negative = inhibition) at 10uM.
Answer by giving the amount and then stating its unit.

CC(=O)N1CCN(S(=O)(=O)c2ccc3c(c2)OCCO3)CC1 = 10.5%
CCCCCC(=O)N1CCN(S(=O)(=O)c2ccc3c(c2)OCCO3)CC1 = -61%
COc1ccc(CC(=O)OC(C)C(=O)c2ccc(C)cc2)cc1 (stereo not drawn) = 20.4%
COc1ccc(C2C(C#N)=C(/N=C/N3CCOCC3)OC3=C2C(=O)CC(C)(C)C3)cc1OC (stereo not drawn) = -13.5%
CCn1c(C)nc2cc(C(=O)N/N=C/c3ccccc3C)ccc21 = -12.8%

Tell me reported hERG current change (%, negative = inhibition) at 10uM for "O=C(CCOc1ccccc1)Nc1ccnn1C1CCN(CCc2ccccc2)CC1" , tested with human ether-à-go-go-related gene (hERG) potassium channel (human).
-65.1%

Tell me reported hERG current change (%, negative = inhibition) at 10uM for "COc1ccc(-n2nc(C(=O)NCC(=O)Nc3ccccn3)c3ccccc3c2=O)cc1" , tested with human ether-à-go-go-related gene (hERG) potassium channel (human).
10.6%

Tell me reported hERG current change (%, negative = inhibition) at 10uM for "O=S(=O)(Nc1ccc(OC(F)F)cc1)c1ccc(-c2ccon2)s1" , tested with human ether-à-go-go-related gene (hERG) potassium channel (human).
-15.3%

Tell me reported hERG current change (%, negative = inhibition) at 10uM for "Cc1ccc(/C=N/NC(=O)COc2ccccc2-c2ccccc2)cc1" , tested with human ether-à-go-go-related gene (hERG) potassium channel (human).
-3.49%

Tell me reported hERG current change (%, negative = inhibition) at 10uM for "CCNC(=O)N1CCC(n2nccc2NC(=O)CCOc2ccccc2)CC1" , tested with human ether-à-go-go-related gene (hERG) potassium channel (human).
9.99%

Tell me reported hERG current change (%, negative = inhibition) at 10uM for COc1ccc(CCNc2ccc(C(CC(N)=O)NC(=O)Cc3cccc4ccccc34)cc2[N+](=O)[O-])cc1 (stereo not drawn) , tested with human ether-à-go-go-related gene (hERG) potassium channel (human).
4.29%

* * *

Some molecules, each annotated with its measured hERG current change (%, negative = inhibition) at 10uM.
# Measured On: human ether-à-go-go-related gene (hERG) potassium channel (human)
# Assay Overview: primary screen, population patch clamp on CHO cells stably expressing hERG; higher = less effect of the substance
Among all 310,000 compounds or so, about 14,000 (4.5%) showed an effect of 50% or more. The effect is printed as a negative number. What follows is part of a selection rich in strong results, with near analogues and random picks from the rest.
Report only the number, with the unit % understood.

O=C(N/C(=C\c1cccc([N+](=O)[O-])c1)C(=O)N1CCOCC1)c1ccco1 = 14.9

Field request: hERG current change (%, negative = inhibition) at 10uM | item: "Cc1cc(-c2cccs2)c2c(n1)sc1c(=O)[nH]c(=O)[nH]c12"
5.3

Field request: hERG current change (%, negative = inhibition) at 10uM | item: "O=C(N/C(=C\c1ccc([N+](=O)[O-])cc1)C(=O)N1CCCCC1)c1ccco1"
-70.3

Field request: hERG current change (%, negative = inhibition) at 10uM | item: "O=C(N/C(=C\c1ccc([N+](=O)[O-])cc1)C(=O)N1CCOCC1)c1ccco1"
-69.2

Field request: hERG current change (%, negative = inhibition) at 10uM | item: "COc1ccc(/C=C(\NC(=O)c2ccco2)C(=O)N2CCOCC2)cc1"
0.365

Field request: hERG current change (%, negative = inhibition) at 10uM | item: "O=C(N/C(=C\c1ccccc1)C(=O)N1CCCCC1)c1ccc(Br)o1"
15.8

* * *

Some compounds, each annotated with its measured hERG current change (%, negative = inhibition) at 10uM.
# Measured On: human ether-à-go-go-related gene (hERG) potassium channel (human, UniProt Q12809)
# Assay Overview: primary screen, population patch clamp on CHO cells stably expressing hERG; higher = less effect of the substance
Screen size: about 310,000 compounds; about 14,000 (4.5%) showed an effect of 50% or more. Effects have a minus sign here. Many of the other results were omitted from the sample, so strong results are more common in it than they were.
Report only the number, with the unit % understood.

Cc1ccc(N2CCN(C(=O)NC3CCCCC3)CC2C)cc1 (centres unmarked) = 4.09
COc1cccc(C(C2C(=O)CC(C)(C)CC2=O)C2C(=O)CC(C)(C)CC2=O)c1 = 21.2
CCOC(=O)CSc1nnc(-c2ccoc2C)n1-c1ccc(C)cc1 = -19.3
COc1ccc(-n2c(SCC(=O)Nc3nccs3)nnc2-c2ccoc2C)cc1 = -80
Cn1c(SCC(=O)Nc2nccs2)nnc1-c1ccco1 = -5.22

Field request: hERG current change (%, negative = inhibition) at 10uM | item: "COc1cccc(-n2c(SCC(=O)Nc3nccs3)nnc2-c2ccoc2C)c1"
-76.8

Field request: hERG current change (%, negative = inhibition) at 10uM | item: "COC(=O)c1ccc(NC(=O)Cn2cnc3c(nnn3-c3cccc(OC)c3)c2=O)cc1"
3.08

Field request: hERG current change (%, negative = inhibition) at 10uM | item: "O=C(NCC1CCN(C(=O)c2cccc([N+](=O)[O-])c2)CC1)c1cccc([N+](=O)[O-])c1"
-53.5

Field request: hERG current change (%, negative = inhibition) at 10uM | item: "CCOC(=O)CSc1nnc(CNC(=O)c2ccc(OC)cc2OC)n1-c1ccc(OC)cc1"
-50.1
